target: Gonadotropin-releasing hormone receptor (Homo sapiens, UniProt P30968); experiment: Antagonist activity at human GnRHR assessed as inhibition of calcium flux by IP3 assay
Observation Type: pIC50
Please report pIC50 as the negative decimal logarithm of the molar concentration, giving only the number.

In the examples that follow, each entry is paired with its recorded pIC50.
COc1cccc(-c2c(C)n(Cc3c(F)cccc3C(F)(F)F)c(=O)n(C[C@H](CO)NC3CCCC3)c2=O)c1Cl (atropisomer R) :: 8.59
COc1cccc(-c2c(C)n(Cc3c(F)cccc3C(F)(F)F)c(=O)n(C[C@H](C)NC3CCCC3)c2=O)c1Cl (single isomer, unassigned; form 2) :: 8.82
COc1cccc(-c2c(C)n(Cc3c(F)cccc3C(F)(F)F)c(=O)n(C[C@H](C)NC3CCCC3)c2=O)c1Cl (single isomer, unassigned; form 1) :: 6.41

Item COc1cccc(-c2c(C)n(Cc3c(F)cccc3C(F)(F)F)c(=O)n(C[C@H](CO)NC3CCCC3)c2=O)c1Cl (single isomer, unassigned; atropisomer) was tested on Gonadotropin-releasing hormone receptor (Homo sapiens, UniProt P30968); the reported pIC50 is 5.60

Item `COc1cccc(-c2c(C)n(Cc3c(F)cccc3C(F)(F)F)c(=O)n(C[C@H](CO)NC3CCCC3)c2=O)c1Cl` was tested on Gonadotropin-releasing hormone receptor (Homo sapiens, UniProt P30968); the reported pIC50 is 8.27

Item `COc1cccc(-c2c(C)n(Cc3c(F)cccc3C(F)(F)F)c(=O)n(C[C@H](C)NC3CCCC3)c2=O)c1F` was tested on Gonadotropin-releasing hormone receptor (Homo sapiens, UniProt P30968); the reported pIC50 is 8.48

###

Below: a set of entries, each annotated with reported pKi.
Target: Gonadotropin-releasing hormone receptor (Homo sapiens, UniProt P30968)
Sequence (P30968 whole entry): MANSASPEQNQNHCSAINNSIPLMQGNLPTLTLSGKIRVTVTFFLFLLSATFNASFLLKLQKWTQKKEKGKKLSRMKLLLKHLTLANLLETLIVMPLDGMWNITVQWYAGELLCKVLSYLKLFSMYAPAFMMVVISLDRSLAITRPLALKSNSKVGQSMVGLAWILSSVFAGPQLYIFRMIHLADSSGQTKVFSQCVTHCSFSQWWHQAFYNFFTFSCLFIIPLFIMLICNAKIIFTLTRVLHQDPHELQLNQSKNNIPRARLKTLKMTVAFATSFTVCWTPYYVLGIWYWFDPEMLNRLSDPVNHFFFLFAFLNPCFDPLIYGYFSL
Please report pKi as the negative decimal logarithm of the molar concentration, giving only the number.

In the examples that follow, each entry is paired with its recorded pKi.
COc1cccc(-c2c(C)n(Cc3c(F)cccc3C(F)(F)F)c(=O)n(C[C@H](CO)NC3CCCC3)c2=O)c1Cl :: 9.15
CC[C@H](Cn1c(=O)c(-c2cccc(OC)c2F)c(C)n(Cc2c(F)cccc2C(F)(F)F)c1=O)NC1CCCC1 :: 7.70

Item COc1cccc(-c2c(C)n(Cc3c(F)cccc3C(F)(F)F)c(=O)n(C[C@H](C)NC3CCCC3)c2=O)c1Cl (single isomer, unassigned; form 2) was tested on Gonadotropin-releasing hormone receptor (Homo sapiens, UniProt P30968); the reported pKi is 9.52

###

target: Gonadotropin-releasing hormone receptor (Homo sapiens, UniProt P30968); assay: Binding affinity to human GnRHR
Observation Type: Ki (nM)
State the answer as a number, implicitly in nM.

COc1cccc(-c2c(C)n(Cc3c(F)cccc3C(F)(F)F)c(=O)n(C[C@H](C)NC3CCCC3)c2=O)c1 :: 4.5

Recorded result, `CC[C@@H](Cn1c(=O)c(-c2cccc(OC)c2F)c(C)n(Cc2c(F)cccc2C(F)(F)F)c1=O)NC1CCCC1` , Ki: 4.2

Recorded result, `CC[C@H](Cn1c(=O)c(-c2cccc(OC)c2Cl)c(C)n(Cc2c(F)cccc2C(F)(F)F)c1=O)NC1CCCC1` , Ki: 7.4

Recorded result, COc1cccc(-c2c(C)n(Cc3c(F)cccc3C(F)(F)F)c(=O)n(C[C@H](CO)NC3CCCC3)c2=O)c1Cl (single isomer, unassigned; atropisomer) , Ki: 190
